system: rats (SD strain, male); assay: Acute toxicity, oral, rats; type: in vivo; conditions: 30 mg/kg, observed two weeks
readoutKind: Rats Dead/ Total

Reference set, count: 3
INSERT INTO results (compound, experimentalsystem, result) VALUES
  ('CS(=O)(=O)Nc1cccc([C@@H](O)CN)c1.Cl [(24B), reference compound]', 'rats (SD strain, male)', '4 / 6'),
  ('CNC[C@H](O)c1ccc(F)c(NS(C)(=O)=O)c1 [(61B)]', 'rats (SD strain, male)', '1 / 6'),
  ('CS(=O)(=O)Nc1cccc(C(O)CN)c1.Cl (racemic) [(24A), reference compound]', 'rats (SD strain, male)', '0 / 6');

Q: Quick check: Rats Dead/ Total on rats (SD strain, male), item CNCC(O)c1cccc(NS(C)(=O)=O)c1 (stereo not shown) [Amidephrine, reference compound] ?
Ans: 6 / 6

Recorded values, source patent EP0538469A1.
